meta.source: the supplement of paper PMC10567573

Assign protein stability index to each entry below.
B1: BCL2L13 (parent)
chain: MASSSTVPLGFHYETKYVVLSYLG

Variants of: B1
Assay: protein stability index of a GFP-peptide fusion (GPS, HEK-293T) (PSI 1-6); higher = more stable;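 also: lentivirally expressed fusions sorted by FACS into six bins by GFP to DsRed ratio, PSI derived from sequencing read proportions per bin multiplied by bin number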
Settings: c terminus: a fixed tail appended

Here are 4 variants together with their reported answers.
Y17L :: 2.22
V18D :: 1.89
S5N :: 2.72
V18W :: 1.84

Give protein stability index for all variants that follow.
1. P8T
2. T15Y
3. V7T
4. S5T
5. E14N

1. 2.53
2. 2.75
3. 2.36
4. 2.71
5. 2.48

Give protein stability index for all variants that follow.
1. V7N
2. V7A
3. P8R
4. K16M
5. L9I
6. L20K
7. V19L

1: 3.19; 2: 2.78; 3: 3.92; 4: 2.61; 5: 3.14; 6: 2.52; 7: 2.29

Give protein stability index for all variants that follow.
1. E14P
2. V19H
3. S21D
4. H12D
5. F11T

[2.24, 1.73, 2.24, 2.39, 1.81]

Retrieve protein stability index measured for M1D and print it.
3.17
